# target desc: IGF2 (Homo sapiens, UniProt P01344)
# Sequence (P01344 25-91): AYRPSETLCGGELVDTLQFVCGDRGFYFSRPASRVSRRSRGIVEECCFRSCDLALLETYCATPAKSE
# procedure details: SPR (Biacore T200) of recombinant IGF2R domain 11 mutants on immobilised biotinylated IGF2
# Format: binding
# Set-up: purchased GroPep
# study conditions: Table 4; MES-EP pH 6.5
quantity kind: Kinetics kon (M⁻¹ s⁻¹)
Numbers only; they are read as M⁻¹ s⁻¹.

Q. Need Kinetics kon of AB5 Q1569R P1597H S1602H: domain 11 AB5 + Q1569R, P1597H, S1602H (AB5-RHH) (protein) MKSNEHDDCQVTNPSTGHLFDLSSLSGRAGFTAAYAKGWGVYMSICGENENCPPGVGACFGRTRISVGKANKRLRYVDQVLQLVYKDGSHCPSKHGLSYKSVISFVCRPEAGPTNRPMLISLDKQTCTLFFSWHTPLACEQATECSV , thanks.
A. 4.41e+06

Q. What value of measured Kinetics kon is listed for AB5 P1597H S1602H: domain 11 AB5 + P1597H, S1602H (protein) MKSNEHDDCQVTNPSTGHLFDLSSLSGRAGFTAAYAKGWGVYMSICGENENCPPGVGACFGQTRISVGKANKRLRYVDQVLQLVYKDGSHCPSKHGLSYKSVISFVCRPEAGPTNRPMLISLDKQTCTLFFSWHTPLACEQATECSV ?
A. 5.32e+06

Q. // Kinetics kon lookup, key: AB5 Q1569R P1597H: domain 11 AB5 + Q1569R, P1597H (protein) MKSNEHDDCQVTNPSTGHLFDLSSLSGRAGFTAAYAKGWGVYMSICGENENCPPGVGACFGRTRISVGKANKRLRYVDQVLQLVYKDGSHCPSKSGLSYKSVISFVCRPEAGPTNRPMLISLDKQTCTLFFSWHTPLACEQATECSV
A. 2.37e+06
